- System: EKVX NSCLC
- test_name: NCI-60 one-dose screen, 48 h
- protocol_conditions: 10 µM unless noted
This is part of a sample that, as a whole, favours compounds with a hit. Of some 83,000 tested, about 20% had one in any assay. The source made the active and inactive calls. Rule for the calls: active = growth percent below 10; inactive = the rest.
Log the outcome using a class from YES = active, NO = inactive

Write down the call the test reported for this compound. Item: CS(=O)(=O)Nc1cc(-c2ccc3ncnc(Nc4ccc5c(cnn5Cc5ccccc5F)c4)c3c2)cnc1Cl
NO

Write down the call the test reported for this compound. Item: O=C(O)CC(C(=O)O)/C(=C\c1ccccc1)c1ccccc1 (centres undefined)
NO

Write down the call the test reported for this compound. Item: O=[N+]([O-])c1ccccc1Sc1ccccc1[N+](=O)[O-]
NO

Write down the call the test reported for this compound. Item: Cn1c2ccccc2c2c3c(c4c5cc(Br)ccc5n(C)c4c21)C(=O)N(O)C3=O
NO

Write down the call the test reported for this compound. Item: COc1ccc2c(c1)CC[C@@H]1[C@@H]2CC[C@]2(C)C3C(=CC(COC(C)=O)C4C(=O)N(c5ccc(Cl)cc5)C(=O)C43)C[C@@H]12 (some centres undefined)
NO

Write down the call the test reported for this compound. Item: Cc1ccc(S(=O)(=O)N2CCCN(c3nc(-c4ccccc4)nc4nc(-c5ccccc5)oc34)CC2)cc1
NO

Write down the call the test reported for this compound. Item: Cc1ccc(-c2csc(NC(=O)CSc3nc(N)cc(N)n3)n2)cc1
NO

Write down the call the test reported for this compound. Item: O=S(=O)(NCCNc1nccc(-c2c(-c3ccc(F)c(O)c3)nc3sccn23)n1)c1ccc(Cl)cc1
NO

Write down the call the test reported for this compound. Item: C=C(C)[C@@H]1CC[C@]2(C(=O)N3CCNCC3)CC[C@]3(C)[C@H](CC[C@@H]4[C@@](C)(CCC(=O)N5CCNCC5)[C@H](C(=C)C)CC[C@]43C)[C@@H]12
NO

Write down the call the test reported for this compound. Item: CC(C)CCC[C@@H](C)[C@H]1CC[C@H]2[C@@H]3CC=C4c5sc(Nc6cc(C(F)(F)F)cc(C(F)(F)F)c6)nc5CC[C@]4(C)[C@H]3CC[C@]12C
NO

Write down the call the test reported for this compound. Item: COCCOC(C)C(/C=N/NC(N)=S)=N/NC(N)=S (centres undefined)
NO

Write down the call the test reported for this compound. Item: COc1cc(-c2ccc(-c3ccc(C(=N)N)cc3)s2)cc(OC)c1OC
NO

Write down the call the test reported for this compound. Item: CCN(CC)CCn1c2ccc(OC)cc2c2sc3cc(O)ccc3c(=O)c21
NO

Write down the call the test reported for this compound. Item: CS(=O)(=O)Nc1cc(-c2ccc3ncnc(Nc4ccc(F)c(Cl)c4)c3c2)ccc1Cl
NO

Write down the call the test reported for this compound. Item: COc1ccc(Oc2ccc(/C=C/C(=O)c3cc4ccccc4oc3=O)cc2)cc1
NO

Write down the call the test reported for this compound. Item: Nc1c(Br)cc2c(c1Br)Cc1cc([N+](=O)[O-])ccc1-2
NO

Write down the call the test reported for this compound. Item: Cc1ccc(C(=O)c2ccc(CC(=O)N/N=C/c3cccc(O)c3O)n2C)cc1
NO

Write down the call the test reported for this compound. Item: CS(=O)(=O)c1ccc(-c2nc3ccccc3n2CC(=O)N/N=C/c2ccccc2)cc1
NO

Write down the call the test reported for this compound. Item: Nc1cccc(-c2ccc(COc3ccc(CC4SC(=O)NC4=O)cc3)cc2)c1 (centres undefined)
NO

Write down the call the test reported for this compound. Item: C=C1CC[C@@H]2C(C)(C)[C@H](O)CC[C@@]2(C)[C@@H]1COc1ccc2ccc(=O)oc2c1
NO

Write down the call the test reported for this compound. Item: COc1ccc(/C=C/C(c2cc(OC)c(OC)c(OC)c2)n2cncn2)cc1O (centres undefined)
NO

Write down the call the test reported for this compound. Item: CNCC[C@H](Oc1cccc2ccccc12)c1cccs1
NO

Write down the call the test reported for this compound. Item: CC12OC(CC(O)C1O)n1c3ccccc3c3c4c(c5c6ccccc6n2c5c31)C(=O)N(CCN1CCCC1)C4=O (centres undefined)
NO

Write down the call the test reported for this compound. Item: COc1ccc(-c2nc3ccc(C)cc3c3c2c(=O)n(C)c(=O)n3C)cc1OC
NO

Write down the call the test reported for this compound. Item: Cc1cn(C)cn1
NO

Write down the call the test reported for this compound. Item: Cc1oc(-c2ccc(Cl)cc2)nc1C1=NN(C(=O)c2ccncc2)C(c2ccccc2)C1 (centres undefined)
NO

Write down the call the test reported for this compound. Item: CNC(=O)Nc1ccc(-c2ccc3ncnc(Nc4cccc(Cl)c4)c3c2)cc1
YES

Write down the call the test reported for this compound. Item: Oc1ccc(-c2nc3ccc4[nH]ncc4c3c3c2CCCC3)c(F)c1
NO

Write down the call the test reported for this compound. Item: Cc1[nH]c(C(=O)Nc2ccccc2OC2CCN(CCN3CCOCC3)CC2)c(Cl)c1Cl
NO

Write down the call the test reported for this compound. Item: CCOC(=O)C/C(=N\Nc1cc(=O)[nH]c2ccc(C)cc12)C(=O)OCC
NO

Write down the call the test reported for this compound. Item: CC1(/C=C/c2ccc(-c3ccccc3)cc2)CCn2cnc3ncnc(c32)N1O (centres undefined)
NO

Write down the call the test reported for this compound. Item: Cn1cc(-c2csc(-c3cn(CCCN4CCOCC4)c4ccc(F)cc34)n2)c2cccnc21
NO

Write down the call the test reported for this compound. Item: COc1ccc(N=C2NN=C(c3c[nH]c4ccccc34)CS2)cc1OC
NO

Write down the call the test reported for this compound. Item: c1cc(OCCN2CCCCC2)ccc1CNc1ccc2nc(CCC3CCCCC3)[nH]c2c1
NO

Write down the call the test reported for this compound. Item: COCCn1cc(-c2csc(-c3c[nH]c4ccccc34)n2)c2cccnc21
NO

Write down the call the test reported for this compound. Item: O=C1C=CC2(O)OC/C(=C\c3ccccc3)C(O)=C2C1=O (centres undefined)
NO

Write down the call the test reported for this compound. Item: COc1ccc(CN2C(=O)OC(C)(COC(C)=O)C2=O)cc1 (centres undefined)
NO

Write down the call the test reported for this compound. Item: COc1cc(-c2cc(-c3ccc(Nc4nc(Nc5ccc(Cl)cc5)nc(Nc5ccc(Cl)cc5)n4)cc3)no2)cc(OC)c1OC
NO

Write down the call the test reported for this compound. Item: CN(C)CCCNC(=O)c1cncnc1Nc1ccc2c(ccn2Cc2cccc(F)c2)c1
NO
